These measurements were taken from ChEMBL document CHEMBL1138346.

test: Partition coefficient, log P of the compound; assay type: physicochemical; conditions: octanol/water
READOUT_KIND: logP

These solved cases illustrate the format of a correct answer.
COC(=O)[C@@H](NCc1cc2ccccc2c(-c2c(O)c(CN[C@H](C(=O)OC)C(C)C)cc3ccccc23)c1O)C(C)C
6.15
COC(=O)[C@H](C)NCc1cc2ccccc2c(-c2c(O)c(CN[C@@H](C)C(=O)OC)cc3ccccc23)c1O
4.38
Cc1cc2cc3c(C)cc(=O)oc3c(C)c2o1
2.44
O=C(O)[C@@H]1CCCN1Cc1cc2ccccc2c(-c2c(O)c(CN3CCC[C@H]3C(=O)O)cc3ccccc23)c1O (stereo in doubt; (S,S,S)-6)
4.28

(a) NCCCC[C@H](NCc1cc2ccccc2c(-c2c(O)c(CN[C@@H](CCCCN)C(=O)O)cc3ccccc23)c1O)C(=O)O
(b) COC(=O)[C@@H]1CCCN1Cc1cc2ccccc2c(-c2c(O)c(CN3CCC[C@H]3C(=O)OC)cc3ccccc23)c1O (stereo in doubt; (S,S,S)-5)
Query: // task: argmin of logP over [ a , b ] Indicate your choice by writing its label.
Response: a
(a: 3.34, b: 4.81)
